Assay: T1-11 level in the brain after intraperitoneal injection
Format: in vivo, mice
Conditions: mouse, ip, 5 mg/kg, 30 min after the intraperitoneal injection, n = 4, mean ± s.e.m., read-out: T1-11 detected in the brain
recordedEndpoint: concentration at 30 min (ng/g)
Report as a plain number; the unit ng/g is understood.

[Q] Supply concentration at 30 min value. Item: OC[C@H]1O[C@@H](n2cnc3c(NCc4ccc(O)cc4)ncnc32)[C@H](O)[C@@H]1O [T1-11, N ^6-(4-hydroxybenzyl)adenine riboside]
[A] 0.12

---

Biological target: UniProt:P0DMS8
Sequence (P0DMS8 whole entry): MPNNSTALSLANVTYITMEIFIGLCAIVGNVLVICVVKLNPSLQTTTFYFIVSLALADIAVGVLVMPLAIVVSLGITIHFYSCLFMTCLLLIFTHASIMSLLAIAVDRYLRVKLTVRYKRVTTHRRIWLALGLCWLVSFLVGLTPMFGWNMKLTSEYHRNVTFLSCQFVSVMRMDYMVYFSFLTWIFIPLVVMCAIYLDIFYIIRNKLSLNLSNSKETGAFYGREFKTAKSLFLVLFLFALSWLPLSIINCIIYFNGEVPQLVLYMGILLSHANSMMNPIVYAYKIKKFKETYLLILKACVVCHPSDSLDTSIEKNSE
recordedEndpoint: pKi
# pKi = -log10(concentration in molar units)

[Q] Read the entry OC[C@H]1O[C@@H](n2cnc3c(NCc4ccc(O)cc4)ncnc32)[C@H](O)[C@@H]1O [T1-11, N ^6-(4-hydroxybenzyl)adenine riboside] and write its reported pKi.
[A] 7.00

---

Molecular target: A2A adenosine receptor (Homo sapiens, UniProt P29274)
Sequence (P29274 whole entry): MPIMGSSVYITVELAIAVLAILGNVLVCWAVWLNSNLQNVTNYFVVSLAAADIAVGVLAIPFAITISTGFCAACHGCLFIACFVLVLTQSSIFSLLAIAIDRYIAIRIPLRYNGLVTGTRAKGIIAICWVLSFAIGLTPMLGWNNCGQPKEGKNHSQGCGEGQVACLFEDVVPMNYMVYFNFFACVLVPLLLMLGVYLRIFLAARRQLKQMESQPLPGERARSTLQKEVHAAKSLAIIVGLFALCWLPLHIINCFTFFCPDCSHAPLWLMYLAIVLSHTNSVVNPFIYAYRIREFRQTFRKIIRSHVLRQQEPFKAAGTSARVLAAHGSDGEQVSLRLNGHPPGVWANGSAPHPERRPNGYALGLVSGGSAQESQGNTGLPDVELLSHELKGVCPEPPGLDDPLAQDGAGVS
recordedEndpoint: Ki (nM)
Hi! Could you send only the number? It should be in nM, unit omitted.

[Q] # lookup: A2A adenosine receptor (Homo sapiens, UniProt P29274) Ki, key = OC[C@H]1O[C@@H](n2cnc3c(NCc4ccc(O)cc4)ncnc32)[C@H](O)[C@@H]1O [T1-11, N ^6-(4-hydroxybenzyl)adenine riboside]
[A] 2620

---

Target: T1, hERG potassium channel (Homo sapiens, UniProt Q12809)
T1 construct: purchased MDS Pharma Services Taiwan
T1 sequence (Q12809 whole entry): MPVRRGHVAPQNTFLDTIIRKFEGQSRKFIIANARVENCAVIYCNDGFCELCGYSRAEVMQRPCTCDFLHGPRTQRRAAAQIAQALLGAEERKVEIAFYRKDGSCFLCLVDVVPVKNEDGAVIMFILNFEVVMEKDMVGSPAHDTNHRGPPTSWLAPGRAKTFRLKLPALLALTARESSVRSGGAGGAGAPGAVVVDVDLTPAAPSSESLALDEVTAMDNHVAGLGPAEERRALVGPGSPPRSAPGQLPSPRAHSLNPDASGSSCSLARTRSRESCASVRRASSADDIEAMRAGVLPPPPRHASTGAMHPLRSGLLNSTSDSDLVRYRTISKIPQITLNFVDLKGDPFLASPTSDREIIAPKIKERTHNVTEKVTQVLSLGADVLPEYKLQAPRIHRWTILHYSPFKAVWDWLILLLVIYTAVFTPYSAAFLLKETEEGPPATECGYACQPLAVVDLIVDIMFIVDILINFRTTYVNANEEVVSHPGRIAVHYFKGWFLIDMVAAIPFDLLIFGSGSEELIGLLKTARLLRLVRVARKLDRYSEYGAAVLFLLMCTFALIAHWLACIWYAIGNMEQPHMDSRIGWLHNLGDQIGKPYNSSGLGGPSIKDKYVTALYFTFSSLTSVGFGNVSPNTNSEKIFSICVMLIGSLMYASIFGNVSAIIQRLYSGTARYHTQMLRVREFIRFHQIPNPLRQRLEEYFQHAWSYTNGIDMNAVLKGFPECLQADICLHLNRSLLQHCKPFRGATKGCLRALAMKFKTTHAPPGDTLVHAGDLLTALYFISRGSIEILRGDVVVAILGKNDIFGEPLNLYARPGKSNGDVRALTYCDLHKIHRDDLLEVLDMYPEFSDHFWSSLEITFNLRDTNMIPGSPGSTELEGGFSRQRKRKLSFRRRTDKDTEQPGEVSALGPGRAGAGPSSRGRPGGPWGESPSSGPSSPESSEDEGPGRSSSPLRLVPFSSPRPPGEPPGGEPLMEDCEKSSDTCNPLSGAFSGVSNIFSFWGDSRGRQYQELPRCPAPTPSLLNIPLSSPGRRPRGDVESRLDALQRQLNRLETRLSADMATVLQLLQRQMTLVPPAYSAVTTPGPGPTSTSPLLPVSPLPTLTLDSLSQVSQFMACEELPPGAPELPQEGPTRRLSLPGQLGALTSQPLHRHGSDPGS
Assay: Radioligand binding panel (Table S1)
Conditions: 10 μM T1-11, n 2
recordedEndpoint: inhibition at 10 µM (%)
State the answer as a number, implicitly in %.

[Q] Write down inhibition at 10 µM measured for item OC[C@H]1O[C@@H](n2cnc3c(NCc4ccc(O)cc4)ncnc32)[C@H](O)[C@@H]1O [T1-11, N ^6-(4-hydroxybenzyl)adenine riboside]
[A] -2

---

Protein target, amino acids: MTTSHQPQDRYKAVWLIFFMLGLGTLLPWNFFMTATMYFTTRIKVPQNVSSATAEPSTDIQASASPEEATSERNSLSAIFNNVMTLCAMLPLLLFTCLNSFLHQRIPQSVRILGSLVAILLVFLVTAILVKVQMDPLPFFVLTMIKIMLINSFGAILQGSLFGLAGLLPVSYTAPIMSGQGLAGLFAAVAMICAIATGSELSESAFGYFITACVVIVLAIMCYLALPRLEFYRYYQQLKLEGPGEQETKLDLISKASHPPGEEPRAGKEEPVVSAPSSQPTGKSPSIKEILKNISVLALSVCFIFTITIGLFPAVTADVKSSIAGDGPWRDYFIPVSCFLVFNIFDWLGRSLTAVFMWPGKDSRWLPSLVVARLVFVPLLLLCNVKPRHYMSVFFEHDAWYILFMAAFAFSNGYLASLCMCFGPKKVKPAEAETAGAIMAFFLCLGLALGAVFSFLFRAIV
recordedEndpoint: IC50 (µM)
Only the number, expressed in µM, is required.

[Q] Dear colleague, please send me the reported IC50 for OC[C@H]1O[C@@H](n2cnc3c(NCc4ccc(O)cc4)ncnc32)[C@H](O)[C@@H]1O [T1-11, N ^6-(4-hydroxybenzyl)adenine riboside] when you can.
[A] 1.57

---

Molecular target: T1, A2AR (Rattus norvegicus, UniProt P30543)
T1 construct: Treatment of PC12 cells with T1-11 dose-dependently elevated the cellular cAMP levels; endogenous in cells
T1 sequence (P30543 whole entry): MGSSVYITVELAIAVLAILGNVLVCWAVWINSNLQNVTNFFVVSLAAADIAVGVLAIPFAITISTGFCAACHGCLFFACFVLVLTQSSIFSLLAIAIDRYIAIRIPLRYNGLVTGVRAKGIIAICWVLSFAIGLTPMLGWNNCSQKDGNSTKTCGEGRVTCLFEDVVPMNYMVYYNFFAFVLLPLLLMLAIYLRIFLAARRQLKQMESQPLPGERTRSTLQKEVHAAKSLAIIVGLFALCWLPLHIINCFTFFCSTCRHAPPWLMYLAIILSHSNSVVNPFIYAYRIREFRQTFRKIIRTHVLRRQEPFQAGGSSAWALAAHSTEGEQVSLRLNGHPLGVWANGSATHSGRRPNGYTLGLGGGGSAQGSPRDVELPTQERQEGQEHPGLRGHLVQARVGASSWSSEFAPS
Assay: cAMP assay in PC12 cells
Conditions: PC12 cells, 20 min at RT; read-out: EC50, elevation of cellular cAMP levels
recordedEndpoint: EC50

[Q] Identify EC50 associated with the molecule OC[C@H]1O[C@@H](n2cnc3c(NCc4ccc(O)cc4)ncnc32)[C@H](O)[C@@H]1O [T1-11, N ^6-(4-hydroxybenzyl)adenine riboside]
[A] ~2200 nM

Values from paper PMC3119665
